Reference for the values: ChEMBL document CHEMBL1133604

# TARGET_DESC: Steroid 17-alpha-hydroxylase/17,20 lyase (Rattus norvegicus, UniProt P11715)
# Sequence (P11715 whole entry): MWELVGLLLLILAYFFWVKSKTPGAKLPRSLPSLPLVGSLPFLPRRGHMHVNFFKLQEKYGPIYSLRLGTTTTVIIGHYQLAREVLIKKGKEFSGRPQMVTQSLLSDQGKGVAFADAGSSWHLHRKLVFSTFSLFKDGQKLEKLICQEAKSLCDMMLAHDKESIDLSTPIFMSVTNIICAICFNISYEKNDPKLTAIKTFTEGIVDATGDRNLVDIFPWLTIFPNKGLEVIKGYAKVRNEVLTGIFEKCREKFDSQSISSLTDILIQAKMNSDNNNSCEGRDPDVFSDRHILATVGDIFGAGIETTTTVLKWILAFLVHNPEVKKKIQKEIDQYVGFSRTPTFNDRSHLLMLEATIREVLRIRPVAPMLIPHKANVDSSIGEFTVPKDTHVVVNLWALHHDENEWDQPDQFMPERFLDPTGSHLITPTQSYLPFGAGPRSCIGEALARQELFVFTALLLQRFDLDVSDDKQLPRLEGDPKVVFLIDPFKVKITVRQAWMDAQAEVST
Parameter inhibition at 125 µM: see the listing below.
Please state the figure in %; there is no need to write the unit.

// worked examples, inhibition at 125 µM included
{"columns": ["MOLECULE", "READOUT_NUMBER"],
 "data": [
  ["c1cnc2c(c1)C(CCCn1ccnc1)CCC2 (centres undefined)", 59],
  ["C1=C(CCCn2ccnc2)c2cccnc2CC1", 79],
  ["c1cnc2c(c1)C(n1ccnc1)CCC2 (centres undefined)", 14]
]}

Lab note: c1cnc2c(c1)C(Cn1ccnc1)CCC2 (centres undefined) gave inhibition at 125 µM of 11

GET /value?item= "C1=C(Cn2ccnc2)c2cccnc2CC1" &field=inhibition at 125 µM returns 69

The molecule "C1=C(CCn2ccnc2)c2cccnc2CC1" showed inhibition at 125 µM equal to 21

The molecule "c1cc(CCn2ccnc2)c2cccnc2c1" showed inhibition at 125 µM equal to 22

// field: inhibition at 125 µM; key: c1cnc2c(c1)C(CCn1ccnc1)CCC2 (centres undefined) ; value = 49

###

# TARGET_DESC: Thromboxane-A synthase (Homo sapiens, UniProt P24557)
# Sequence (P24557 whole entry): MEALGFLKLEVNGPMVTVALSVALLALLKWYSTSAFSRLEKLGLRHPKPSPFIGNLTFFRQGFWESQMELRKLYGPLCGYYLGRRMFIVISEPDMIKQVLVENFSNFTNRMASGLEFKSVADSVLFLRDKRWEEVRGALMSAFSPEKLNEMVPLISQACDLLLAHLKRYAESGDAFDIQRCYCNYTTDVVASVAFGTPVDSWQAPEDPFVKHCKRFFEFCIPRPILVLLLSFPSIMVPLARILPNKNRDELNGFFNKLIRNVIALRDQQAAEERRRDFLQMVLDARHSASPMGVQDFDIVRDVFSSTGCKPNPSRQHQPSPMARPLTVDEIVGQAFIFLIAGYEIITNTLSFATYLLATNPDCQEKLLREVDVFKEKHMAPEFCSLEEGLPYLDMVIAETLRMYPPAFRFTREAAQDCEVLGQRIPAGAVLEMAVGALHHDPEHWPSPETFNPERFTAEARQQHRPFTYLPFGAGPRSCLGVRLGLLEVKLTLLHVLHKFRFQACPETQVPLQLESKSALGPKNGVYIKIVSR
# Format: tissue-based, Blood
Reported pIC50 values are given for each entry in this list.
Please note pIC50 is a logarithmic value: minus log10 of concentration in mol/L. Answer with that number alone.

Past entries and their recorded results:
{"columns": ["COMPOUND", "pIC50"],
 "data": [
  ["C1=C(CCn2ccnc2)c2cccnc2CC1", 6.54],
  ["C1=C(Cn2ccnc2)c2cccnc2CC1", 5.82],
  ["c1ccc2c(c1)CCCC2CCn1ccnc1 (stereo unspecified)", 5.47],
  ["C(/Cn1ccnc1)=C1\\CCCc2occc21", 5.39],
  ["c1cc(CCn2ccnc2)c2cccnc2c1", 5.92],
  ["C(/Cn1ccnc1)=C1\\CCCc2sccc21", 5.90]
]}

Lab note: c1cnc2c(c1)C(CCn1ccnc1)CCC2 (stereo unspecified) gave pIC50 of 6.20

Measured pIC50, "C(/Cn1ccnc1)=C1/CCCc2occc21" : 5.45

Value of pIC50 reported for the compound "C1=C(CCCn2ccnc2)c2cccnc2CC1" is 6.17

Input c1cn(CCC2CCCc3occc32)cn1 (stereo unspecified) . Output pIC50: 6.00

# pIC50 (compound: c1cnc2c(c1)C(CCCn1ccnc1)CCC2 (stereo unspecified) ) is 5.64

Measured pIC50, "C(/Cn1ccnc1)=C1/CCCc2sccc21" : 5.77

Entry "c1cc(CCn2ccnc2)c2ccsc2c1" — recorded pIC50 = 5.28

###

# RUN_DESCRIPTION: cells
# Format: functional
# MEASUREMENT_SETUP: Bos taurus
RESULT_TYPE: pIC50
Keep it numeric: pIC50 is minus log10 of the concentration in mol/L.

Kindly note the recorded pIC50 for "C1=C(CCn2ccnc2)c2cccnc2CC1" , which is 6.76

###

Readings of IC50 for the listed compounds
# TARGET_DESC: Thromboxane-A synthase (Homo sapiens, UniProt P24557)
# Type: tissue-based, Blood
State the value with its unit after it.

Would you please look over these solved cases?
{"columns": ["COMPOUND", "IC50"],
 "data": [
  ["c1cc2ccc(Cn3ccnc3)cc2cn1", "5400 nM"],
  ["c1cn(CCC2CCCc3sccc32)cn1 (stereo not drawn)", "1230 nM"]
]}

Please turn your attention to the following entry.
The compound identified as c1cnc2c(c1)C(Cn1ccnc1)CCC2 (stereo not drawn) registered its IC50 at 2000 nM
